B1: library; a variant is named by its letters at N, in order (parent)
chain: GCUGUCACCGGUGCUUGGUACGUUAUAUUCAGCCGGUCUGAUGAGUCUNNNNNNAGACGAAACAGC

# Variants of: B1
# protocol text: FACS-Seq fitted mean relative fluorescence mCherry/BFP with ligand (log10 relative fluorescence); HEK293T overexpressing SLC46A1; ligand concentration (+) FACS-Seq: 6 mM; higher = higher reporter protein expression
# conditions used: with (6R,S)-folinic acid; ligand present: yes
property label: FACS-Seq fitted mean (log10)
Kindly provide the number alone.

sequence text | FACS-Seq fitted mean (log10)
GCUGUCACCGGUGCUUGGUACGUUAUAUUCAGCCGGUCUGAUGAGUCUACAAUGAGACGAAACAGC [ACAAUG] | 0.372
GCUGUCACCGGUGCUUGGUACGUUAUAUUCAGCCGGUCUGAUGAGUCUUAGAAAAGACGAAACAGC [UAGAAA] | 0.254
GCUGUCACCGGUGCUUGGUACGUUAUAUUCAGCCGGUCUGAUGAGUCUAGCCUAAGACGAAACAGC [AGCCUA] | 0.612
GCUGUCACCGGUGCUUGGUACGUUAUAUUCAGCCGGUCUGAUGAGUCUGAGUAAAGACGAAACAGC [GAGUAA] | 0.44
GCUGUCACCGGUGCUUGGUACGUUAUAUUCAGCCGGUCUGAUGAGUCUGUCACGAGACGAAACAGC [GUCACG] | 0.228

In plain terms, GCUGUCACCGGUGCUUGGUACGUUAUAUUCAGCCGGUCUGAUGAGUCUAUAGAUAGACGAAACAGC [AUAGAU] has a documented FACS-Seq fitted mean (log10) of 0.406

In plain terms, GCUGUCACCGGUGCUUGGUACGUUAUAUUCAGCCGGUCUGAUGAGUCUUGGAGAAGACGAAACAGC [UGGAGA] has a documented FACS-Seq fitted mean (log10) of 0.388

In plain terms, GCUGUCACCGGUGCUUGGUACGUUAUAUUCAGCCGGUCUGAUGAGUCUACUUUAAGACGAAACAGC [ACUUUA] has a documented FACS-Seq fitted mean (log10) of 0.366

In plain terms, GCUGUCACCGGUGCUUGGUACGUUAUAUUCAGCCGGUCUGAUGAGUCUGCAGAUAGACGAAACAGC [GCAGAU] has a documented FACS-Seq fitted mean (log10) of 0.319

In plain terms, GCUGUCACCGGUGCUUGGUACGUUAUAUUCAGCCGGUCUGAUGAGUCUGGUGCUAGACGAAACAGC [GGUGCU] has a documented FACS-Seq fitted mean (log10) of 0.149

In plain terms, GCUGUCACCGGUGCUUGGUACGUUAUAUUCAGCCGGUCUGAUGAGUCUUAUGGCAGACGAAACAGC [UAUGGC] has a documented FACS-Seq fitted mean (log10) of -0.149

In plain terms, GCUGUCACCGGUGCUUGGUACGUUAUAUUCAGCCGGUCUGAUGAGUCUGAUAUAAGACGAAACAGC [GAUAUA] has a documented FACS-Seq fitted mean (log10) of 0.482

In plain terms, GCUGUCACCGGUGCUUGGUACGUUAUAUUCAGCCGGUCUGAUGAGUCUGCGUAGAGACGAAACAGC [GCGUAG] has a documented FACS-Seq fitted mean (log10) of 0.372

In plain terms, GCUGUCACCGGUGCUUGGUACGUUAUAUUCAGCCGGUCUGAUGAGUCUGUAAUAAGACGAAACAGC [GUAAUA] has a documented FACS-Seq fitted mean (log10) of 0.161
